# System: HS 578T breast
# Experimental Details: NCI tumour cell line growth inhibition, 48 h

# Molecule, TGI
records = [
    ("CNc1ccc(S(=O)Nc2ccccc2)cc1 (stereo unspecified)", "> 100 µM"),
    ("CCCCCCOP(=O)(OCCCCCC)OC(C(=O)OC)C(F)(F)F (stereo unspecified)", "> 100 µM"),
    ("CC(C)=CCC[C@@H](C)c1c2[nH]c3ccccc3sc-2c(C)c(=O)c1=O", "> 48.9 µM"),
    ("COc1ccc(C=Nc2ccc(-c3nc4ccccc4[nH]3)cc2)cc1OC", "> 100 µM"),
    ("COc1cc2cc(Oc3ccc(NC(=O)c4cccc5c4OCCO5)cc3)c(C)nc2cc1OC", "> 100 µM"),
    ("O=C(Cc1ccc(/C=C/C(=O)c2ncc[nH]2)cc1)Nc1ccc(C(F)(F)F)cc1", "> 33.3 µM"),
    ("CC(C)(C)c1ccc(-c2nnc(-c3cc(C#N)cc(-c4nnc(-c5ccc(C(C)(C)C)cc5)o4)c3)o2)cc1", "> 100 µM"),
    ("CCCCCCCCCCCCCCCCS(=O)(=O)c1ccc(NN)cc1", "> 10 µM"),
    ("COc1cc2nnn3c4ncccc4c(N=O)c3c2cc1OC", "> 100 µM"),
    ("Cc1ccc(S(=O)(=O)N/N=C2\\C3CC4CC(C3)C2C4)cc1 (stereo unspecified)", "> 100 µM"),
    ("CC12OC(C(=O)C13CCC3)C1C(=O)c3ccccc3C(=O)C12 (stereo unspecified)", "> 100 µM"),
]

---

# System: HOP-62 NSCLC
# Experimental Details: NCI tumour cell line growth inhibition, 48 h

# Molecule, Units Text, Relation Operator, TGI
data = [
    ("COc1ccc(-c2nc3c(c(=O)n2C(C)=O)C(c2ccc(Cl)cc2)c2sc4c(Cl)cccc4c2O3)cc1 (stereo not given)", "nM", "=", 1960),
    ("Nc1ncnc2c1c(-c1ccc(Oc3ccccc3)cc1)nn2C[C@@H]1SSC[C@@H]1O", "nM", "=", 1240),
    ("O=C(O)[C@@H]1CCCC[C@@H]1C(=O)N(C1CCCCC1)C1CCCCC1", "nM", ">", 100000),
    ("O=C(OCc1ccccc1C1CSCSC1)c1cc(C(=O)OCc2ccccc2C2CSCSC2)c(C(=O)OCc2ccccc2C2CSCSC2)cc1C(=O)OCc1ccccc1C1CSCSC1", "nM", ">", 100000),
    ("COc1ccc(C=Nc2ccc(-c3nc4ccccc4[nH]3)cc2)cc1OC", "nM", ">", 100000),
]

---

# TGI per record follows
# System: LOX IMVI melanoma
# Experimental Details: NCI tumour cell line growth inhibition, 48 h
Observable: TGI (µM)

# Compound, Observable, Relation Operator, Numeric Readout
data = [
    ("COC(=O)C(NC(=O)CSc1nnc(COc2ccc(Cl)cc2)n1-c1ccccc1)C(C)C (centres undefined)", "TGI", "=", 88.1),
    ("[N-]=[N+]=C(C(=O)C(=[N+]=[N-])C(=O)c1ccccc1)C(=O)c1ccccc1", "TGI", ">", 100),
    ("CC1=C2C(=O)c3ccccc3C(=O)[C@H]2C[C@@H](N2CCCCCC2=O)O1", "TGI", "=", 44.5),
    ("CCOC(=O)c1nc2ccccc2nc1NCc1ccc(Cl)cc1Cl", "TGI", ">", 100),
]
